tested_on: T1, macaca GM-CSF (Macaca mulatta (identical in Macaca …, UniProt Q0MUT8 18-144 (Chlorocebus aethiops entry), limits assumed))
T1 chain: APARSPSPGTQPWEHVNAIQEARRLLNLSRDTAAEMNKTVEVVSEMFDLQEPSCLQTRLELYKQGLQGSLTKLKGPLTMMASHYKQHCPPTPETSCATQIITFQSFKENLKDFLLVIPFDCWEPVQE
test_method_notes: cell-based or functional assay
Each entry below carries its reported Fold macaca/human I117 (IC50, TF-1 proliferation).
measured_endpoint: Fold macaca/human I117 (IC50, TF-1 proliferation) (fold)

INSERT INTO assay_data (binder, reported_measurement) VALUES
  ('MSB0010601 4K21 (4K21 hVH S55K-T62S hVL N28I-H34S-N53R-H93Y) (antibody, V domains shown, IgG; also called optimized 4K21 antibody) VH: EVQLVESGGGLVQPGGSLRLSCAASGFAFSAYDMSWVRQAPGKRLELVAYISSGGKSFYYPDSVKGRFTISRDNAKNSLYLQMNSLRAEDTAVYYCTRHLGFDYWGQGTLVTVSS VL: DIVMTQSPLSLPVTPGEPASISCRSSQSLVNSIGNTYLSWYLQKPGQSPQLLIYKVSRRFSGVPDRFSGSGSGTDFTLKISRVEAEDVGVYYCSQSTYVPPTFGQGTKVEIK', 2.3),
  ('MSB0010595 4K21 (4K21 hVH S56V-T62S hVL S27eY-N28I-H34S-N53R-H93Y) (antibody, V domains shown) VH: EVQLVESGGGLVQPGGSLRLSCAASGFAFSAYDMSWVRQAPGKRLELVAYISSGGSVFYYPDSVKGRFTISRDNAKNSLYLQMNSLRAEDTAVYYCTRHLGFDYWGQGTLVTVSS VL: DIVMTQSPLSLPVTPGEPASISCRSSQSLVNYIGNTYLSWYLQKPGQSPQLLIYKVSRRFSGVPDRFSGSGSGTDFTLKISRVEAEDVGVYYCSQSTYVPPTFGQGTKVEIK', 1.2),
  ('MSB0010599 4K21 (4K21 hVH S55R-T62S hVL N28I-H34S-N53R-H93Y) (antibody, V domains shown, IgG) VH: EVQLVESGGGLVQPGGSLRLSCAASGFAFSAYDMSWVRQAPGKRLELVAYISSGGRSFYYPDSVKGRFTISRDNAKNSLYLQMNSLRAEDTAVYYCTRHLGFDYWGQGTLVTVSS VL: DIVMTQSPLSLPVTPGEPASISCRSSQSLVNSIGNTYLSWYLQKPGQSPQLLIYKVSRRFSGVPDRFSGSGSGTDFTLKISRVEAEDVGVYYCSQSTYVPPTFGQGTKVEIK', 3);
